# TEST TARGET: HLA-C0102 (Homo sapiens, UniProt P10321, A176E/A330V/A35S/A97T/C350S/D114A/D33F/L171W/L180R/L218V/M285V/M309V/M331V/P208H/Q277E/Q291P/R121W/R243W/R30K/S123C/S140Y/S297R/T329A/T363A/V272M/V319A)
# TEST NAME: Competitive peptide binding assay, CIR-C0102
# MEASUREMENT CONTEXT: HMy2.CIR-C0102 cells, reference Cy5-[…], class from inhibition at 5 and 15 μM, flow cytometry MFI; read-out: Binding affinity with HLA-C0102
Peptide text beside a SMILES is read from it.
# IC50 listing for each entry below

C[C@H](NC(=O)[C@H](CO)NC(=O)[C@H](CO)NC(=O)[C@@H](N)Cc1ccc(O)cc1)C(=O)N[C@@H](CC(N)=O)C(=O)N[C@@H](CC(N)=O)C(=O)N[C@@H](CS)C(=O)N[C@H](C(=O)N[C@@H](Cc1ccccc1)C(=O)O)[C@@H](C)O [Epitope M64] (H-YSSANNCTF-OH; N-terminus and C-terminus assumed) :: > 15 µM
CSCC[C@H](NC(=O)[C@H](C)NC(=O)[C@@H](N)Cc1ccccc1)C(=O)N[C@@H](CCC(N)=O)C(=O)N[C@@H](CCSC)C(=O)N[C@@H](C)C(=O)N[C@@H](Cc1ccc(O)cc1)C(=O)N[C@@H](CCCNC(=N)N)C(=O)N[C@@H](Cc1ccccc1)C(=O)O [Epitope M63] :: > 15 µM

Input: Entry CC[C@H](C)[C@H](NC(=O)[C@H](C)NC(=O)[C@H](C)NC(=O)[C@H](CC(N)=O)NC(=O)CNC(=O)[C@H](CC(=O)O)NC(=O)[C@H](CCC(N)=O)NC(=O)[C@H](C)NC(=O)[C@@H](N)Cc1ccccc1)C(=O)O [Epitope M22] (H-FAQDGNAAI-OH; N-terminus and C-terminus assumed) has what IC50?
Output: > 15 µM

Input: Entry CC[C@H](C)[C@H](NC(=O)[C@H](Cc1ccc(O)cc1)NC(=O)[C@H](CC(C)C)NC(=O)[C@H](Cc1ccccc1)NC(=O)[C@H](CCCNC(=N)N)NC(=O)[C@H](CC(N)=O)NC(=O)[C@H](CCCNC(=N)N)NC(=O)[C@H](CC(N)=O)NC(=O)[C@H](C)NC(=O)[C@@H](N)Cc1ccc(O)cc1)C(=O)O [Epitope M73] (H-YANRNRFLYI-OH; N-terminus and C-terminus assumed) has what IC50?
Output: > 15 µM

Input: Entry CSCC[C@H](NC(=O)[C@H](C)NC(=O)[C@@H]1CCCN1C(=O)[C@H](CC(=O)O)NC(=O)[C@H](C)NC(=O)[C@H](C)NC(=O)[C@H](Cc1ccc(O)cc1)NC(=O)[C@@H](NC(=O)[C@@H](N)CC(C)C)C(C)C)C(=O)O [Epitope M58] (H-LVYAADPAM-OH; N-terminus and C-terminus assumed) has what IC50?
Output: > 15 µM

Input: Entry CSCC[C@H](NC(=O)[C@H](CO)NC(=O)[C@H](CCC(N)=O)NC(=O)[C@H](CCC(N)=O)NC(=O)[C@H](CC(C)C)NC(=O)[C@H](CCC(N)=O)NC(=O)[C@H](CCCCN)NC(=O)[C@H](CO)NC(=O)[C@@H](N)Cc1ccccc1)C(=O)O [Epitope M14] (H-FSKQLQQSM-OH; N-terminus and C-terminus assumed) has what IC50?
Output: > 15 µM
